Each item that follows carries a reported pIC50 (FF).
Biological target: UniProt:P51449
Assay: RORγ Gal4 Reporter Gene Assay in 293T cells (firefly and renilla luciferase)
Type: cell-based, human

molecule: CCN(C(C)(C)C)S(=O)(=O)c1ccc(-c2cc(C(=O)NC3CCOCC3)c(C)n2CC2CCCCC2)cc1C(F)F
measuredTarget: UniProt:P51449
pIC50 (FF): 7.1/6.4/6/
//
molecule: Cc1c(C(=O)NC2CCOCC2)cc(-c2ccc(C(=O)NC(C)(C)C)c(C(F)(F)F)c2)n1CC1CCCCC1
measuredTarget: UniProt:P51449
pIC50 (FF): 5.0/6.8/7.3
//
molecule: Cc1c(C(=O)NC2COC2)cc(-c2cc(C(C)(C)C)cc(C(C)(C)C)c2)n1S(=O)(=O)N(C)C1CCCCC1
measuredTarget: UniProt:P51449
pIC50 (FF): 6.5/6.3/6.4
//
molecule: Cc1c(C(=O)NC2COC2)cc(-c2cc(C(=O)NC(C)(C)C)nc(C(C)(C)C)c2)n1CC1CCCCC1
measuredTarget: UniProt:P51449
pIC50 (FF): 6.2/6.3/6.4
//
molecule: Cc1c(C(=O)NCC2CNCCO2)cc(-c2cc(C(C)(C)C)c3c(c2)C2(CCO3)CC2)n1CC1CCCCC1.Cl (stereo not shown)
measuredTarget: UniProt:P51449
pIC50 (FF): 5.5/<4.7/<4.7
//
molecule: Cc1c(C(=O)NC2CCOCC2)cc(-c2ccc(S(=O)(=O)NC(C)(C)C)c(C(F)(F)F)c2)n1CC1CCCC(C(F)(F)F)C1 (stereo not shown)
measuredTarget: UniProt:P51449
pIC50 (FF): 6.3/6.9/6.9
//
molecule: Cc1c(C(=O)NC2(C)COC2)cc(-c2cc(C(C)(C)C)c3c(c2)C2(CCO3)CC2)n1CC1CCCCC1
measuredTarget: UniProt:P51449
pIC50 (FF): 6.2/6.8/6.9

Value source: patent US9815851B2
